Where do the numbers come from? From patent US9062066B2.

biological target: Hck tyrosine kinase (Homo sapiens (Human), UniProt P08631); test: in vitro Hck tyrosine kinase inhibition; format: biochemical; details: 1 uM compound; read-out: % inhibition against Hck
Sequence (P08631 whole entry): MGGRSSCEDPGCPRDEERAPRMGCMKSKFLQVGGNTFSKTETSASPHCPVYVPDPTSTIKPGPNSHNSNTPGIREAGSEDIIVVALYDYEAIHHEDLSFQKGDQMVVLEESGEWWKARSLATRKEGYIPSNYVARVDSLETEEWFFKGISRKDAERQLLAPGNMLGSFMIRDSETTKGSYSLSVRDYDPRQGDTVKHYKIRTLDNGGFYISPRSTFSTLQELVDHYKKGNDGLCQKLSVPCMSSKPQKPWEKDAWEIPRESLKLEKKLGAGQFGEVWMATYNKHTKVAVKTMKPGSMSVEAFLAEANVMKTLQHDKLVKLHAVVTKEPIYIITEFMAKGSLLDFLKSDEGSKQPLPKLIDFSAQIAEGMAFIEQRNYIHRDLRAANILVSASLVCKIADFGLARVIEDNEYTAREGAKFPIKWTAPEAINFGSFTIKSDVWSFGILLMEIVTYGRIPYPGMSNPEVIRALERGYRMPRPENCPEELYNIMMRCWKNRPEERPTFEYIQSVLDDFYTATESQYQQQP

molecule: Oc1cccc(Nc2ncnc3cc(-c4ccoc4)sc23)c1 [LCB 03-0039]
inhibition at 1 µM: > 50%
//
molecule: CO[C@@H]1C[C@@H](CO)N(C(=O)c2cc3nccc(Nc4ccc5c(c4)cc(C)n5C(=O)NC4CC4)c3s2)C1 [Control compound 3, reference compound]
inhibition at 1 µM: < 20%
//
molecule: Oc1cccc(Nc2ncnc3cc(-c4cc(CN5CCCCC5)co4)sc23)c1 [LCB 03-0115]
inhibition at 1 µM: > 50%
//
molecule: CCOCc1ccc(-c2cc3ncnc(Nc4cccc(O)c4)c3s2)cc1 [LCB 03-0073]
inhibition at 1 µM: > 30%
//
molecule: Cl.OCCNCc1ccc(-c2cc3ncnc(Nc4cccc(O)c4)c3s2)cc1 [LCB 03-0070]
inhibition at 1 µM: > 80%
//
molecule: Oc1cccc(Nc2ncnc3cc(-c4ccc(CCN5CCCC5)cc4)sc23)c1 [LCB 03-0043]
inhibition at 1 µM: > 30%
//
molecule: Oc1cccc(Nc2ncnc3cc(-c4ccc(CN5CCCCC5)cc4)sc23)c1 [LCB 03-0035]
inhibition at 1 µM: > 80%
//
molecule: Oc1cccc(Nc2ncnc3cc(-c4ccc(OCCN5CCOCC5)cc4)sc23)c1 [LCB 03-0020]
inhibition at 1 µM: > 70%

----------
biological target: UniProt P09769; test: in vitro Fgr tyrosine kinase inhibition; assay type: biochemical; settings: 1 uM compound; read-out: % inhibition against Fgr
Sequence (P09769 whole entry): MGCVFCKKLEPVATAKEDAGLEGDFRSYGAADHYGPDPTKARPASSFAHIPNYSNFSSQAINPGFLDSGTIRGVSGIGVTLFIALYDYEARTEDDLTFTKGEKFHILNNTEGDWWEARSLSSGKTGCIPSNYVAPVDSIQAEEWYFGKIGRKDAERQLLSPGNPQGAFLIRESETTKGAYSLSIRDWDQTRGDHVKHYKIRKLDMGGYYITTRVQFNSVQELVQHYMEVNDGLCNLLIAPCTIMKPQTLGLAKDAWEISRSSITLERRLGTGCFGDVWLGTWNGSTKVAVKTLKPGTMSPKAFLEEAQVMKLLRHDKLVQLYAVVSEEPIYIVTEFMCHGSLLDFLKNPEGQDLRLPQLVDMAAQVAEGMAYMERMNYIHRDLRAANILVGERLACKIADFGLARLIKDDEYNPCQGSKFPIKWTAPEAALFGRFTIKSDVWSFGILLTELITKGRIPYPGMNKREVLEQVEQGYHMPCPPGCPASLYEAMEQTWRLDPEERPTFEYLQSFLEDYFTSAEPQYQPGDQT
Below, each entry is listed with its recorded inhibition at 1 µM.

record-smiles: Cl.Oc1cccc(Nc2ncnc3cc(-c4cccc(CN5CCCCC5)c4)sc23)c1
inhibition at 1 µM: > 80%
--
record-smiles: O=C(c1cccc(-c2cc3ncnc(Nc4cccc(O)c4)c3s2)c1)N1CCCC1
inhibition at 1 µM: > 70%
--
record-smiles: CN1CCN(Cc2ccc(-c3cc4ncnc(Nc5cccc(O)c5)c4s3)o2)CC1
inhibition at 1 µM: > 70%
--
record-smiles: CCNCc1cccc(-c2cc3ncnc(Nc4cccc(O)c4)c3s2)c1.Cl
inhibition at 1 µM: > 80%
--
record-smiles: COc1cccc(Nc2ncnc3cc(-c4ccsc4)sc23)c1
inhibition at 1 µM: > 30%
--
record-smiles: COc1cccc(Nc2ncnc3cc(-c4ccc(OCCN5CCOCC5)cc4)sc23)c1
inhibition at 1 µM: > 70%
--
record-smiles: Oc1cccc(Nc2ncnc3cc(-c4ccc(CCN5CCCC5)cc4)sc23)c1
inhibition at 1 µM: > 30%
--
record-smiles: CCNCc1ccc(-c2cc3nccc(Nc4cccc(O)c4)c3s2)cc1
inhibition at 1 µM: > 30%
--
record-smiles: Oc1cccc(Nc2ccnc3cc(-c4ccc(CN5CCOCC5)cc4)sc23)c1
inhibition at 1 µM: > 60%

----------
target: UniProt:P08631; experiment: in vitro Hck tyrosine kinase inhibition; type: biochemical; conditions: 1 uM compound; read-out: % inhibition against Hck

compound: Oc1cccc(Nc2ncnc3cc(-c4cc(CN5CCNCC5)cs4)sc23)c1
inhibition at 1 µM: > 50%
--
compound: Oc1cccc(Nc2ncnc3cc(-c4ccc(CN5CCOCC5)cc4)sc23)c1
inhibition at 1 µM: > 80%
--
compound: CCNCc1ccc(-c2cc3ncnc(Nc4cccc(O)c4)c3s2)cc1
inhibition at 1 µM: > 80%
--
compound: COC(=O)C1CCCN1Cc1ccc(-c2cc3ncnc(Nc4cccc(O)c4)c3s2)cc1 (stereo not drawn)
inhibition at 1 µM: > 50%
--
compound: OCC1CCCN1Cc1ccc(-c2cc3ncnc(Nc4cccc(O)c4)c3s2)cc1 (stereo not drawn)
inhibition at 1 µM: > 50%
--
compound: CCN(CC)C(=O)c1cccc(-c2cc3ncnc(Nc4cccc(O)c4)c3s2)c1
inhibition at 1 µM: > 60%
--
compound: CN1CCN(Cc2ccc(-c3cc4ncnc(Nc5cccc(O)c5)c4s3)s2)CC1
inhibition at 1 µM: > 60%
--
compound: Oc1cccc(Nc2ncnc3cc(-c4ccc(CN5CCCC5)s4)sc23)c1
inhibition at 1 µM: > 70%
--
compound: CCNCc1csc(-c2cc3ncnc(Nc4cccc(O)c4)c3s2)c1
inhibition at 1 µM: > 70%
